Some compounds, each annotated with its measured GI50.
Test system: SF-539
MEASUREMENT DESCRIPTION: NCI tumour cell line growth inhibition, 48 h
Active and inactive are the calls of the source. No stated cut-off is given here; in the data, active = GI50 up to about 1.1 µM and inactive = higher.

Look over these answered cases.
CCCc1cc(=O)oc2c3c(c4c(c12)OC(C)(C)C=C4)O[C@@H](C)[C@H](C)C3=O: 17.7 µM (inactive)
Cn1c(COC(=O)NC2CCCCC2)c(COC(=O)NC2CCCCC2)c2ccc3ccccc3c21: 16 µM (inactive)
COc1cccc(/C=N/NC(N)=O)c1O: > 100 µM (inactive)
C=C1C(=O)O[C@H]2[C@H]1CC(=O)/C(C)=C/CC[C@@]1(C)O[C@@H]21: 2.08 µM (inactive)
O=C(O)C1CCc2nnc(-c3ccccc3)n21 (stereo not drawn): > 100 µM (inactive)

Please give the measured GI50 for this compound: "CN(C)c1ccc(C(c2ccc(N(C)C)cc2)c2ccc([N+](=O)[O-])cc2)cc1"
> 100 µM (inactive)

Given the entry CC(C)(C)C1=C(Br)C(Br)(C(C)(C)C)OP1(=O)c1ccccc1 (stereo not drawn) , report its measured GI50.
> 100 µM (inactive)

I am curious: what GI50 value has been reported for "c1ccc2c(c1)NCc1cc3ccccc3nc1O2" ?
> 100 µM (inactive)

Find the recorded GI50 belonging to "Cc1coc2c1C(=O)C(=O)c1c-2ccc2c1CCCC2(C)C" and report it.
2.42 µM (inactive)

Any idea what its GI50 is? The compound is COc1ccc2ccccc2c1C1OC(=O)c2ccccc21 (stereo not drawn)
> 100 µM (inactive)

// GI50 lookup, key: COC1OC(CO)C(O)C(OC(C)=O)C1NC(=O)N(CCCl)N=O (stereo not drawn)
34.3 µM (inactive)
